system name: Nuclear factor erythroid 2-related factor 2 (Homo sapiens) (UniProt Q16236)
Sequence (Q16236 whole entry): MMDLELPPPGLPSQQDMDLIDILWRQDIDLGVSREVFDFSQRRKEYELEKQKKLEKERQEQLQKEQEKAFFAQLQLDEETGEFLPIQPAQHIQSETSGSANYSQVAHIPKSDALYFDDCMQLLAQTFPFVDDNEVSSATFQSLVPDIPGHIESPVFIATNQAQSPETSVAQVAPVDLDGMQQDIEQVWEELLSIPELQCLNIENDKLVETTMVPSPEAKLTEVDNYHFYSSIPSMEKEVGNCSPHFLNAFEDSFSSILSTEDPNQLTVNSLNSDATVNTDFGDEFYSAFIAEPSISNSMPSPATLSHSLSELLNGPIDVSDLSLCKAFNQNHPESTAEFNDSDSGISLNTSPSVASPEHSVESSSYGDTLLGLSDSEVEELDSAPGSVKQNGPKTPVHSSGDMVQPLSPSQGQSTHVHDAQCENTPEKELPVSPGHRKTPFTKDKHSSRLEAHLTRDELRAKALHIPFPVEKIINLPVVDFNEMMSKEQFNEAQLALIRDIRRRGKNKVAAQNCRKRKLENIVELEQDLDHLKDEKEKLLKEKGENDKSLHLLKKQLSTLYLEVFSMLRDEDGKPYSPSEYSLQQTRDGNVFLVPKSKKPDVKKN
test summary: Induction of Nrf2-mediated NQO1 gene expression in human BEAS2B cells at 10 uM after 16 hrs by RT-PCR analysis relative to untreated control
Type: functional, cell-based

{"substance smiles": "COc1cc(C(=O)/C=C/c2ccccc2C(F)(F)F)cc(OC)c1OC", "fold change (FC)": 3.1}
{"substance smiles": "COc1cccc(OC)c1C(=O)/C=C/c1cccc(C(F)(F)F)c1", "fold change (FC)": 0.6}
{"substance smiles": "COc1cccc(C(=O)/C=C/c2ccccc2[N+](=O)[O-])c1", "fold change (FC)": 2.7}
{"substance smiles": "COc1ccc(C(=O)/C=C/c2ccccc2)cc1", "fold change (FC)": 2.8}
{"substance smiles": "COc1cc(OC)c(C(=O)/C=C/c2ccccc2C(F)(F)F)c(OC)c1", "fold change (FC)": 4.3}
{"substance smiles": "COc1cc(C(=O)/C=C/c2ccccc2)cc(OC)c1OC", "fold change (FC)": 0.7}
{"substance smiles": "COc1ccc(C(=O)/C=C/c2ccc(C(F)(F)F)cc2)cc1", "fold change (FC)": 4.6}
{"substance smiles": "O=C(/C=C/c1ccccc1C(F)(F)F)c1ccccc1", "fold change (FC)": 5.3}
{"substance smiles": "COc1cccc(C(=O)/C=C/c2cccc(C(F)(F)F)c2)c1", "fold change (FC)": 3.5}
{"substance smiles": "COc1ccc(C(=O)/C=C/c2ccccc2[N+](=O)[O-])cc1", "fold change (FC)": 4.3}
{"substance smiles": "COc1cc(OC)cc(C(=O)/C=C/c2ccccc2)c1", "fold change (FC)": 2.4}
{"substance smiles": "COc1cc(OC)c(C(=O)/C=C/c2ccc(C(F)(F)F)cc2)c(OC)c1", "fold change (FC)": 2.4}
{"substance smiles": "O=C(/C=C/c1ccccc1[N+](=O)[O-])c1ccccc1", "fold change (FC)": 1.6}
{"substance smiles": "O=C(/C=C/c1ccc(C(F)(F)F)cc1)c1ccccc1", "fold change (FC)": 2.9}
{"substance smiles": "COc1cc(OC)c(C(=O)/C=C/c2ccccc2)c(OC)c1", "fold change (FC)": 1.8}
{"substance smiles": "COc1cc(C(=O)/C=C/c2cccc(C(F)(F)F)c2)cc(OC)c1OC", "fold change (FC)": 0.8}
{"substance smiles": "COc1cc(OC)cc(C(=O)/C=C/c2ccccc2[N+](=O)[O-])c1", "fold change (FC)": 4.1}
{"substance smiles": "COc1cccc(OC)c1C(=O)/C=C/c1ccc(C(F)(F)F)cc1", "fold change (FC)": 0.6}
{"substance smiles": "COc1ccc(C(=O)/C=C/c2ccccc2C(F)(F)F)c(OC)c1", "fold change (FC)": 4.5}
{"substance smiles": "O=C(/C=C/c1cccc(C(F)(F)F)c1)c1ccccc1", "fold change (FC)": 2.8}
{"substance smiles": "COc1ccc(C(=O)/C=C/c2ccccc2)c(OC)c1OC", "fold change (FC)": 2.4}
{"substance smiles": "COc1ccc(C(=O)/C=C/c2ccccc2C(F)(F)F)c(OC)c1OC", "fold change (FC)": 4.1}
{"substance smiles": "COc1cccc(OC)c1C(=O)/C=C/c1ccccc1[N+](=O)[O-]", "fold change (FC)": 3.7}

---

system name: Nuclear factor erythroid 2-related factor 2 (Homo sapiens)
test summary: Induction of Nrf2-mediated NQO1 gene expression in human BEAS2B cells at 10 uM after 16 hrs by RT-PCR analysis relative to untreated control
Type: functional, cell-based
Could you mark each record y if its fold change (FC) falls strictly under 3, and n if it equals or exceeds it?

{"molecule": "COc1ccc(OC)c(C(=O)/C=C/c2ccccc2[N+](=O)[O-])c1", "class": "y"}
{"molecule": "COc1ccc(OC)c(C(=O)/C=C/c2ccccc2)c1", "class": "y"}
{"molecule": "COc1cc(OC)c(C(=O)/C=C/c2cccc(C(F)(F)F)c2)c(OC)c1", "class": "y"}
{"molecule": "COc1ccc(C(=O)/C=C/c2ccccc2[N+](=O)[O-])c(OC)c1OC", "class": "n"}
{"molecule": "COc1ccccc1C(=O)/C=C/c1ccccc1C(F)(F)F", "class": "n"}
{"molecule": "COc1cccc(C(=O)/C=C/c2ccc(C(F)(F)F)cc2)c1", "class": "n"}
{"molecule": "COc1cc(C(=O)/C=C/c2ccccc2[N+](=O)[O-])cc(OC)c1OC", "class": "y"}
{"molecule": "COc1cccc(OC)c1C(=O)/C=C/c1ccccc1C(F)(F)F", "class": "n"}
{"molecule": "COc1ccc(C(=O)/C=C/c2ccccc2[N+](=O)[O-])cc1OC", "class": "y"}
{"molecule": "C[S+]([O-])CCCCN=C=S (stereo unspecified)", "class": "n"}
{"molecule": "COc1ccc(C(=O)/C=C/c2ccccc2C(F)(F)F)cc1", "class": "n"}

---

system name: Nuclear factor erythroid 2-related factor 2 (Homo sapiens) (UniProt Q16236)
test summary: Induction of Nrf2-mediated NQO1 gene expression in human BEAS2B cells at 10 uM after 16 hrs by RT-PCR analysis relative to untreated control
Type: functional, cell-based
Below, each entry is listed alongside its reported fold change (FC).
reported property: fold change (FC)

{"substance smiles": "COc1ccc(C(=O)/C=C/c2cccc(C(F)(F)F)c2)cc1", "reported property": "fold change (FC)", "readout number": 2.8}
{"substance smiles": "COc1ccc(OC)c(C(=O)/C=C/c2cccc(C(F)(F)F)c2)c1", "reported property": "fold change (FC)", "readout number": 0.8}
{"substance smiles": "COc1cc(OC)cc(C(=O)/C=C/c2cccc(C(F)(F)F)c2)c1", "reported property": "fold change (FC)", "readout number": 3.9}
{"substance smiles": "COc1ccc(C(=O)/C=C/c2ccc(C(F)(F)F)cc2)c(OC)c1OC", "reported property": "fold change (FC)", "readout number": 3.9}

---

system name: Nuclear factor erythroid 2-related factor 2 (Homo sapiens) (UniProt Q16236)
test summary: Induction of Nrf2-mediated GCLM gene expression in human BEAS2B cells at 10 uM after 16 hrs by RT-PCR analysis relative to untreated control
Type: functional, cell-based
Listed here are molecules together with their documented fold change (FC).

{"substance smiles": "COc1ccc(C(=O)/C=C/c2ccc(C(F)(F)F)cc2)cc1OC", "system name": "Nuclear factor erythroid 2-related factor 2 (Homo sapiens) (UniProt Q16236)", "fold change (FC)": 3.5}
{"substance smiles": "COc1ccc(C(=O)/C=C/c2ccccc2[N+](=O)[O-])cc1", "system name": "Nuclear factor erythroid 2-related factor 2 (Homo sapiens) (UniProt Q16236)", "fold change (FC)": 4.6}
{"substance smiles": "COc1ccccc1C(=O)/C=C/c1ccccc1C(F)(F)F", "system name": "Nuclear factor erythroid 2-related factor 2 (Homo sapiens) (UniProt Q16236)", "fold change (FC)": 4.5}
{"substance smiles": "COc1ccc(C(=O)/C=C/c2ccccc2C(F)(F)F)c(OC)c1OC", "system name": "Nuclear factor erythroid 2-related factor 2 (Homo sapiens) (UniProt Q16236)", "fold change (FC)": 5.4}
{"substance smiles": "COc1cc(OC)cc(C(=O)/C=C/c2ccccc2C(F)(F)F)c1", "system name": "Nuclear factor erythroid 2-related factor 2 (Homo sapiens) (UniProt Q16236)", "fold change (FC)": 4}
{"substance smiles": "COc1cccc(C(=O)/C=C/c2ccccc2)c1", "system name": "Nuclear factor erythroid 2-related factor 2 (Homo sapiens) (UniProt Q16236)", "fold change (FC)": 1.5}
{"substance smiles": "COc1ccccc1C(=O)/C=C/c1ccccc1", "system name": "Nuclear factor erythroid 2-related factor 2 (Homo sapiens) (UniProt Q16236)", "fold change (FC)": 3.6}
{"substance smiles": "COc1ccc(OC)c(C(=O)/C=C/c2ccc(C(F)(F)F)cc2)c1", "system name": "Nuclear factor erythroid 2-related factor 2 (Homo sapiens) (UniProt Q16236)", "fold change (FC)": 4.1}

---

system name: Nuclear factor erythroid 2-related factor 2 (Homo sapiens) (UniProt Q16236)
test summary: Induction of Nrf2-mediated GCLM gene expression in human BEAS2B cells at 10 uM after 16 hrs by RT-PCR analysis relative to untreated control
Format: functional, cell-based
Measured fold change (FC), listed per entry.

{"substance smiles": "COc1cccc(OC)c1C(=O)/C=C/c1ccccc1[N+](=O)[O-]", "fold change (FC)": 4.1}
{"substance smiles": "COc1ccc(C(=O)/C=C/c2ccccc2C(F)(F)F)cc1OC", "fold change (FC)": 4.3}
{"substance smiles": "COc1cccc(OC)c1C(=O)/C=C/c1ccccc1", "fold change (FC)": 2.5}
{"substance smiles": "COc1ccc(C(=O)/C=C/c2cccc(C(F)(F)F)c2)c(OC)c1", "fold change (FC)": 4.6}
{"substance smiles": "COc1cccc(C(=O)/C=C/c2cccc(C(F)(F)F)c2)c1", "fold change (FC)": 4.6}
{"substance smiles": "COc1cccc(OC)c1C(=O)/C=C/c1ccccc1C(F)(F)F", "fold change (FC)": 5.7}
{"substance smiles": "COc1ccc(C(=O)/C=C/c2ccccc2)cc1OC", "fold change (FC)": 2.3}
{"substance smiles": "COc1ccc(C(=O)/C=C/c2cccc(C(F)(F)F)c2)cc1OC", "fold change (FC)": 4.1}
{"substance smiles": "O=C(/C=C/c1ccccc1C(F)(F)F)c1ccccc1", "fold change (FC)": 5}
{"substance smiles": "COc1ccc(C(=O)/C=C/c2ccccc2[N+](=O)[O-])c(OC)c1", "fold change (FC)": 2.7}
